Parameter: composite z-score. Scope: all listed entries.
measured_on: Dickkopf-related protein 1 (Homo sapiens) (UniProt O94907)
Sequence (O94907 whole entry, looked up): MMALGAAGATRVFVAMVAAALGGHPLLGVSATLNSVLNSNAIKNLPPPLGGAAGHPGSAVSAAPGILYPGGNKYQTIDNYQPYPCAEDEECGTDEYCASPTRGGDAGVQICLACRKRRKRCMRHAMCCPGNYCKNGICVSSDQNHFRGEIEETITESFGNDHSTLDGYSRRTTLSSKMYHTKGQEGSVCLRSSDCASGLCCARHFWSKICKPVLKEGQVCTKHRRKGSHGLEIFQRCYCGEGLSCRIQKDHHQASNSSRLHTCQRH
test_description: DKK1 binders on small-molecule microarrays, primary screen, biochemical, small-molecule microarray, 635 nm fluorescence scan (AID 1106);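 note: score merges emission near 667 nm with signal to noise over three replicate slides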
measurement_conditions: DKK1 binding, higher = more signal
Format: numeric value only, no unit, no commentary.

Sample answers from the record:
COc1ccc(O[C@H]2C=C[C@@H](c3ccccc3)O[C@@H]2COC(=O)NCc2cccc3ccccc23)cc1 : 0.269
C[C@@H]1C=CCC(=O)OC[C@H](C)C(=O)N[C@@H](Cc2ccccc2)C(=O)OC1 : 0.909
CCCCOC(OCCCC)C(O)CSc1ccc2ccccc2c1 (stereo unspecified) : 0.486

// query Give recorded composite z-score. `CC(=O)OC[C@H]1O[C@@H](ON=C2[C@H]3CCn4c(=O)n(-c5ccccc5)c(=O)n4[C@H]3[C@H](O)[C@@H]3O[C@H]23)[C@H](OC(C)=O)[C@@H](OC(C)=O)[C@@H]1OC(C)=O`
// result 0.731

// query For the compound `COC(=O)CC=C[C@@H](C)[C@@H](C=NOC[C@@H](C)[C@H](OCc1ccccc1)C(C)C)NS(=O)(=O)c1ccc(C)cc1` , give its measured composite z-score value.
// result 0.0424

// query Item `COC(=O)[C@@H]1CC[C@H](C)[C@@H](c2ccc(Br)cc2)N1C[C@@H](O)CN=[N+]=[N-]` : provide composite z-score
// result 0.356

====

System: wheat germ agglutinin (Triticum aestivum), Alexa647-labelled
test_description: wheat germ agglutinin binders on compound microarrays, profiling panel, artefact control for SMM control-protein annotation, biochemical, small-molecule microarray, 635/667 nm fluorescence (AID 1140);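 note: score merges 667 nm feature emission with signal to noise over triplicate slides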
measurement_conditions: WGA-A647 binding, 635 nm fluorescence, higher = more signal
recorded_endpoint: composite z-score
Write the number on its own, no unit after it.

Examples from the recorded data:
CCOC(=O)NN=C1C[C@@H](O)[C@@H](O)[C@@H]2[C@@H]3C(=O)N(CC)C(=O)[C@@H]3CC[C@H]12 : 0.195
CC(CCN1CCCc2nc(C)c(C)cc21)=NO[C@H](C)c1cn([C@@H]2COC[C@H]2O)nn1 : 0.205
COC(=O)CC=C[C@@H](C)[C@@H](C=NOC[C@@H](O)COCc1ccco1)OC : -0.83
CCOC(=O)CCN1C(=O)[C@H]2[C@H]3[C@H](O)[C@H](O)CC(=NNC(=O)OCc4ccccc4)[C@H]3CC[C@H]2C1=O : -0.547

// query Tell me its composite z-score given `Cc1ccc(C(C)C)n1C(=O)OC(C)(C)C` as the entry.
// result 0.188

// query Please report composite z-score for the following molecule: CCOC(=O)[C@H](Cc1ccccc1)NC(=O)CCC1CC(OC(=O)NCc2ccc3c(c2)OCO3)CC2(CCCC(COC(=O)NCCCN3CCCC3=O)O2)O1 (some centres undefined)
// result 0.305

// query Answer with reported composite z-score of `C#CCCCON=C1C[C@@H](O)[C@@H](O)[C@@H]2[C@@H]3C(=O)N([C@@H](C)c4ccccc4)C(=O)[C@@H]3CC[C@@H]12`
// result 0.0859

// query Kindly indicate its recorded composite z-score. Item: `CC(=O)OC[C@H]1O[C@@H](ON=C(C)C)[C@H](OC(C)=O)[C@@H](OC(C)=O)[C@@H]1OC(C)=O`
// result -0.88

// query Give me measured composite z-score, please, for this molecule: `CC(C)=CCCC(C)=CCON=C1C[C@@H](O)[C@@H](O)[C@@H]2[C@@H]3C(=O)N(Cc4ccc5c(c4)OCO5)C(=O)[C@@H]3CC[C@@H]12`
// result 0.574

// query Give composite z-score for the following molecule: Cc1cc2c(nc1C)CCCCN2CC(O)CN1CCCc2nc(-c3ccc(Br)cc3)ccc21 (centres undefined)
// result 0.765

// query Return reported composite z-score. Input molecule: `CC=CC1=C(CO)[C@H](O)[C@H]2O[C@H]2[C@@H]1O`
// result -0.0224

// query # return recorded composite z-score for input COC(=O)[C@H](C)NC(=O)CCC1CC(OC(=O)NCCc2ccc(F)cc2)CC2(CCCC(COC(=O)NCCOc3ccccc3)O2)O1 (some centres undefined)
// result 0.309

// query Identify composite z-score associated with the molecule `COC(=O)[C@H](C)NC(=O)CC=C[C@@H](C)[C@@H]1C=C[C@H](O)[C@@H](CO)O1`
// result -0.28

// query Give the reported composite z-score for this molecule. `CCN1C(=O)[C@H]2[C@H]3[C@H](O)[C@H](O)CC(=NO[C@@H]4O[C@H](CO)[C@@H](O)[C@H](O)[C@H]4O)[C@H]3CC[C@H]2C1=O`
// result 0.0622
